Tested on: COLO 205
Test: NCI tumour cell line growth inhibition, 48 h
Calls of active or inactive are those of the source. Rule as the data show it: active = GI50 up to about 1.1 µM and inactive = higher.
Classes used: active, inactive

molecule="O=C(NNC(=O)c1ccccc1S)c1ccccc1S [BIS(THIOSALICYL)HYDRAZIDE]" measurement_target="COLO 205" assigned_label=inactive
molecule="CCCN1CN(C(C(=O)N[C@@H]2C(=O)N3C(C(=O)O)=C(C)CSC23)c2ccc(O)cc2)CSC1=S (some centres undefined)" measurement_target="COLO 205" assigned_label=inactive
molecule=O=C(O)c1ccc(Nc2nc3cc(C(F)(F)F)ccc3nc2C(=O)O)cc1 measurement_target="COLO 205" assigned_label=inactive
molecule=COC(=O)C(I(OS(=O)(=O)c1ccc(C)cc1)c1ccccc1)=P(c1ccccc1)(c1ccccc1)c1ccccc1 measurement_target="COLO 205" assigned_label=inactive
molecule="CC/C(=N/O)C(C)C(=O)CCC(=O)Nc1ccc(Cl)cc1 (centres undefined)" measurement_target="COLO 205" assigned_label=inactive
molecule="CC1=NN(c2ccc(S(=O)(=O)O)cc2)C2(C1)SCC(=O)N2c1nc2ccccc2s1 (centres undefined)" measurement_target="COLO 205" assigned_label=inactive
molecule=COc1ccc(CN2C(=O)C(=O)N(C)C2=O)c2ccccc12 measurement_target="COLO 205" assigned_label=inactive
molecule=CSc1nsc(-c2ccccc2)[s+]1.[O-][Cl+3]([O-])([O-])[O-] measurement_target="COLO 205" assigned_label=inactive
molecule="COc1ccc(/C(=N/Nc2ccccc2)C(c2ccc(OC)cc2)C2OC(=O)c3ccccc32)cc1 (centres undefined)" measurement_target="COLO 205" assigned_label=inactive
molecule=O=C(CCc1nnc2s/c(=C\c3ccc4c(c3)OCO4)c(=O)n12)Nc1cc(Cl)ccc1Cl measurement_target="COLO 205" assigned_label=inactive
molecule="C/C(=N\\NC(N)=O)C(CN1CCOCC1)C(c1ccccc1)c1c(O)c2ccccc2oc1=O (centres undefined)" measurement_target="COLO 205" assigned_label=inactive
molecule="Cc1cn(CC2=NCC(C)N2)c(=O)[nH]c1=O (centres undefined)" measurement_target="COLO 205" assigned_label=inactive
molecule="C[C@@H]1CCC2[C@@H](C)[C@@H](OCCO[C@H]3OC4O[C@@]5(C)CCC6[C@H](C)CCC([C@H]3C)[C@@]46OO5)OC3O[C@@]4(C)CCC1[C@]32OO4 (some centres undefined)" measurement_target="COLO 205" assigned_label=active
molecule=CO/N=C(/C(=O)OC)c1ccccc1COc1cccc(C(F)(F)F)c1 measurement_target="COLO 205" assigned_label=inactive
molecule=COP(=O)(/C=C/c1cc(C(=O)OCc2ccccc2)n(S(=O)(=O)c2ccccc2)c1)OC measurement_target="COLO 205" assigned_label=inactive
molecule="CCC(CCC(C)C1CCC2C3CC=C4CC(OC5OC(CO)C(O)C(O)C5O)CCC4(C)C3CCC12C)C(C)C (centres undefined)" measurement_target="COLO 205" assigned_label=inactive
molecule="COc1cc2c(cc1OC)C(Cc1ccc(Oc3cc(CC4c5cc(OC)c(OC)cc5CCN4C)ccc3O)cc1)N(C)CC2 (centres undefined)" measurement_target="COLO 205" assigned_label=inactive
molecule="O=C1NC(c2ccccc2)N=C2Oc3ccccc3C=C12 (centres undefined)" measurement_target="COLO 205" assigned_label=active
molecule=N#Cc1[nH]c(=O)n(-c2ccccc2)c1N measurement_target="COLO 205" assigned_label=inactive
molecule=CCOC(=O)/C=C/C(=O)O/C=C/[N+](=O)[O-] measurement_target="COLO 205" assigned_label=inactive
molecule=O=C(C#Cc1ccccc1)NC/C=C/c1ccccc1 measurement_target="COLO 205" assigned_label=inactive
molecule=Cc1ccc(S(=O)(=O)Nc2nnc(S(N)(=O)=O)s2)cc1 measurement_target="COLO 205" assigned_label=inactive
molecule="Oc1ccc(/C=C/c2cc(O)cc3c2C(c2cc(O)cc(O)c2)C(c2ccc(O)c(O)c2)O3)cc1 (centres undefined)" measurement_target="COLO 205" assigned_label=inactive
molecule=O=C(NNCC(F)(F)F)c1ccncc1 measurement_target="COLO 205" assigned_label=inactive

###

GI50 reference
Test system: SF-295
Test: NCI tumour cell line growth inhibition, 48 h
Activity calls are given as the source filed them. Rule as the data show it: active = GI50 up to about 1.1 µM and inactive = higher.
Parameter: GI50

compound="O=C1CCC2(c3ccccc3)Nc3ccc(Cl)cc3N12 (centres undefined)" value_observed="> 100 µM (inactive)"
compound=C[C@H](CCCOS(C)(=O)=O)[C@H]1CC[C@H]2[C@@H]3CC[C@@H]4C[C@H](OS(C)(=O)=O)CC[C@]4(C)[C@H]3CC[C@]12C value_observed="37.5 µM (inactive)"
compound="CCc1ccccc1NC(=O)C(=O)C(C#N)c1ccccc1Cl (centres undefined)" value_observed="> 100 µM (inactive)"
compound="Clc1ccc(C(c2ccccc2Cl)C(Cl)Cl)cc1 (centres undefined)" value_observed="16.2 µM (inactive)"
compound=C(=N\Nc1nnc2c(n1)[nH]c1ccccc12)/c1cccnc1 value_observed="> 100 µM (inactive)"
compound=COc1ccc2nc3cc(Cl)ccc3c(Nc3ccccc3-c3ccccc3Nc3c4ccc(Cl)cc4nc4ccc(OC)cc34)c2c1 value_observed="33 µM (inactive)"
compound=CCc1cccc(C(C)C)c1N1C(=O)C(=O)C(c2nc3ccccc3s2)C(=O)C1=O value_observed="> 39.4 µM (inactive)"
compound=COC(=O)C(I(OS(=O)(=O)c1ccc(C)cc1)c1ccccc1)=P(c1ccccc1)(c1ccccc1)c1ccccc1 value_observed="30.1 µM (inactive)"
compound="O=C1C(Cl)C(c2ccc(Cl)cc2)N1n1cnc2ccccc2c1=O (centres undefined)" value_observed="82.8 µM (inactive)"

###

System: RPMI-8226
Test: NCI tumour cell line growth inhibition, 48 h
The source made the active and inactive calls. Rule as the data show it: active = GI50 up to about 1.1 µM and inactive = higher.
Parameter: GI50

compound="CCN(/C=C1/C(=O)C(c2ccccc2)N(c2ccccc2)C1=O)CC (configuration not stated)" value_observed="> 10 µM (inactive)"
compound=COC(=O)Cc1cccc2c1CCC2=O value_observed="> 100 µM (inactive)"
compound=N#Cc1[nH]c(=O)n(-c2ccccc2)c1N value_observed="> 10 µM (inactive)"
compound="O=C1NC(c2ccccc2)N=C2Oc3ccccc3C=C12 (configuration not stated)" value_observed="19.3 µM (inactive)"
compound=COC(=O)c1ccc(C(=O)OC)c2nc3cc(Cl)ccc3nc12 value_observed="> 100 µM (inactive)"
compound=CCOC(=O)c1nc(SC)sc1NC(=O)c1ccc(OC)cc1 value_observed="> 100 µM (inactive)"
compound="CCOC(=O)NC(NC(C)CC)(C(F)(F)F)C(F)(F)F (configuration not stated)" value_observed="> 100 µM (inactive)"
compound=C/C(=C\CNc1ncnc2c1ncn2CCC(=O)OC(C)(C)C)CO value_observed="> 100 µM (inactive)"
compound=O=C1NC(N2CCCCC2)=N/C1=C\c1cccs1 value_observed="> 100 µM (inactive)"
compound=COc1ccc2cc(NC(=O)N/N=C\c3ccc([N+](=O)[O-])cc3)ccc2c1 value_observed="35.7 µM (inactive)"
compound=O=C1CSC(/C(=C\c2ccc(Cl)cc2)c2nc3ccccc3[nH]2)=N1 value_observed="33.8 µM (inactive)"
compound="COC(=O)C1(C)CCCC2(C)c3cc(OC)ccc3C(=O)C(Br)C12 (configuration not stated)" value_observed="2.24 µM (inactive)"
compound="CCOC(OCC)C(CCc1ccccc1)c1c(N)nc(N)[nH]c1=O (configuration not stated)" value_observed="38.6 µM (inactive)"
compound=Cn1c(=O)c2c(nc3[nH]c(=O)c(Br)cn32)n(C)c1=O value_observed="> 100 µM (inactive)"
compound=CC(=O)Nc1oc(C)c(C)c1S(=O)(=O)c1ccc(Cl)cc1 value_observed="35.6 µM (inactive)"
compound="COc1cc(C[S+]([O-])c2ccc(O)cc2)cc(OC)c1OC (configuration not stated)" value_observed="> 100 µM (inactive)"
compound=C/C(CC(=O)Nc1ccc(C)c(C)c1)=N\NC(N)=O value_observed="> 100 µM (inactive)"
compound=O=c1ccs[nH]1 value_observed="2.7 µM (inactive)"
compound="COC(=O)Cc1c2n(c3ccccc13)C(=O)N1c3ccccc3C(CC(=O)OC)C21 (configuration not stated)" value_observed="> 100 µM (inactive)"
compound="COc1ccc(/C(C#N)=C2/O/C(=N/N)C(c3ccc(OC)c(OC)c3)C2=O)cc1OC (configuration not stated)" value_observed="> 100 µM (inactive)"
compound=Cc1ccc(/N=N/c2c(O)ccc3ccccc23)cc1 value_observed="99.3 µM (inactive)"
compound="CCOC(=O)C(NC(=O)c1ccc(/N=N/N(C)C)cc1)C(C)C (configuration not stated)" value_observed="> 100 µM (inactive)"
compound=CN1CCN(C)C1c1cccc(C2N(C)CCN2C)c1 value_observed="> 100 µM (inactive)"
compound=NC1=Nc2ccccc2Sc2ccccc21 value_observed="77.4 µM (inactive)"
compound=O=C1N[C@H]2C(=O)c3c(Br)sc(Br)c3[C@H]2O1 value_observed="4.44 µM (inactive)"
compound=CC(=O)c1c(O)nnc(-c2ccc(Cl)cc2)c1-c1ccc(Cl)cc1 value_observed="23.2 µM (inactive)"
compound="Cc1cc(Cl)ccc1NC(=O)CC1SC(NC(=O)c2ccccc2Cl)=NC1=O (configuration not stated)" value_observed="15.2 µM (inactive)"
